Source of measurements: patent US20180289678A1

# measurement.notes: Study .1: single dose study in healthy volunteers, pharmacokinetic parameters
# Type: in vivo, human
# condition.summary: human, plasma, oral, 2.5 mg, 2.5 mg single dose, Study .1, fasted; read-out: Cmax Mean
experimental.readout: Cmax
Just the number plus its unit, please.

Give its Cmax value. Item: "OC[C@H]1O[C@@H](c2ccc(Cl)c(Cc3ccc(O[C@H]4CCOC4)cc3)c2)[C@H](O)[C@@H](O)[C@@H]1O" 53.2 nM

---

# measurement.notes: Study .4: 4-week treatment of diabetic patients, once daily, pharmacokinetic parameters
# Assay type: in vivo, human
# condition.summary: human, plasma, oral, 10 mg, 10 mg single dose, Study .4, fasted; read-out: Cmax Mean
experimental.readout: Cmax (nM)
Field format: number, assumed nM, no unit text.

Sample OC[C@H]1O[C@@H](c2ccc(Cl)c(Cc3ccc(O[C@H]4CCOC4)cc3)c2)[C@H](O)[C@@H](O)[C@@H]1O [Compound (I.9)] — what was its Cmax? 309

---

# measurement.notes: Study .2: multiple rising dose trial in diabetic patients, once daily for 8 days, pharmacokinetic parameters
# Assay type: in vivo, human
# condition.summary: human, plasma, oral, 25 mg, 25 mg once daily, steady state, Study .2, fasted; read-out: tmax,ss g Mean
experimental.readout: Tmax (h)
Numbers only; they are read as h.

Given the compound OC[C@H]1O[C@@H](c2ccc(Cl)c(Cc3ccc(O[C@H]4CCOC4)cc3)c2)[C@H](O)[C@@H](O)[C@@H]1O [Compound (I.9)] , what is its reported Tmax? 1.97

---

# measurement.notes: Study .4: 4-week treatment of diabetic patients, once daily, pharmacokinetic parameters
# Format: in vivo, human
# condition.summary: human, plasma, oral, 10 mg, 10 mg single dose, Study .4, fasted; read-out: AUC0-inf Mean
experimental.readout: AUC(0-inf) (µM·h)
Write the number in µM·h without appending the unit.

Consider the molecule shown here: "OC[C@H]1O[C@@H](c2ccc(Cl)c(Cc3ccc(O[C@H]4CCOC4)cc3)c2)[C@H](O)[C@@H](O)[C@@H]1O" What is its recorded AUC(0-inf)? 1.74

---

# measurement.notes: Study .1: single dose study in healthy volunteers, pharmacokinetic parameters
# Format: in vivo, human
# condition.summary: human, plasma, oral, 50 mg, 50 mg single dose, Study .1, fasted; read-out: Cmax Median
experimental.readout: Cmax (nM)
Entry rule: numbers only, all in nM.

Item under review: "OC[C@H]1O[C@@H](c2ccc(Cl)c(Cc3ccc(O[C@H]4CCOC4)cc3)c2)[C@H](O)[C@@H](O)[C@@H]1O" . Reported Cmax? 1100

---

# measurement.notes: Pharmacokinetic profile in fasting humans, ranges over Studies .1 to .5
# Assay type: in vivo
# condition.summary: human, plasma, oral, 25 mg, single dose of 25.0 mg, read-out: Cmax
experimental.readout: Cmax

Return reported Cmax; argument: "OC[C@H]1O[C@@H](c2ccc(Cl)c(Cc3ccc(O[C@H]4CCOC4)cc3)c2)[C@H](O)[C@@H](O)[C@@H]1O" 334 to 1030 nM

---

# measurement.notes: Study .2: multiple rising dose trial in diabetic patients, once daily for 8 days, pharmacokinetic parameters
# Format: in vivo, human
# condition.summary: human, plasma, oral, 25 mg, 25 mg once daily, steady state, Study .2, fasted; read-out: AUCτ,ss Median
experimental.readout: AUC (µM·h)
Your answer should be a plain number; it is taken to be in µM·h.

Data request, read-out AUC, for "OC[C@H]1O[C@@H](c2ccc(Cl)c(Cc3ccc(O[C@H]4CCOC4)cc3)c2)[C@H](O)[C@@H](O)[C@@H]1O" 4.56

---

# measurement.notes: Study .5: single dose study in healthy Japanese volunteers, pharmacokinetic parameters
# Assay type: in vivo, human
# condition.summary: human, plasma, oral, 10 mg, 10 mg single dose, Study .5, fasted; read-out: Cmax Median
experimental.readout: Cmax

Find the recorded Cmax belonging to "OC[C@H]1O[C@@H](c2ccc(Cl)c(Cc3ccc(O[C@H]4CCOC4)cc3)c2)[C@H](O)[C@@H](O)[C@@H]1O" and report it. 398 nM

---

# measurement.notes: Study .4: 4-week treatment of diabetic patients, once daily, pharmacokinetic parameters
# Format: in vivo, human
# condition.summary: human, plasma, oral, 25 mg, 25 mg once daily, steady state, Study .4, fasted; read-out: Cmax,ss Mean
experimental.readout: Cmax (nM)
Express your answer in nM, writing the number without its unit.

If you can, please state the reported Cmax value of "OC[C@H]1O[C@@H](c2ccc(Cl)c(Cc3ccc(O[C@H]4CCOC4)cc3)c2)[C@H](O)[C@@H](O)[C@@H]1O" . 687

---

# measurement.notes: Study .4: 4-week treatment of diabetic patients, once daily, pharmacokinetic parameters
# Type: in vivo, human
# condition.summary: human, plasma, oral, 25 mg, 25 mg single dose, Study .4, fasted; read-out: tmax Median
experimental.readout: Tmax (h)
Report only the number, with the unit h understood.

Fill in: Tmax of "OC[C@H]1O[C@@H](c2ccc(Cl)c(Cc3ccc(O[C@H]4CCOC4)cc3)c2)[C@H](O)[C@@H](O)[C@@H]1O" is ___ 1.5

---

# measurement.notes: Study .4: 4-week treatment of diabetic patients, once daily, pharmacokinetic parameters
# Assay type: in vivo, human
# condition.summary: human, plasma, oral, 10 mg, 10 mg single dose, Study .4, fasted; read-out: AUC0-inf Median
experimental.readout: AUC(0-inf) (µM·h)
The reply should be a number in µM·h, with the unit left off.

Give its AUC(0-inf) value. Item: OC[C@H]1O[C@@H](c2ccc(Cl)c(Cc3ccc(O[C@H]4CCOC4)cc3)c2)[C@H](O)[C@@H](O)[C@@H]1O [Compound (I.9)] 1.73

---

# measurement.notes: Study .3: single dose, cross-over, food effect study in healthy volunteers, pharmacokinetic parameters
# Type: in vivo, human
# condition.summary: human, plasma, oral, 50 mg, 50 mg single dose, Study .3/fed; read-out: tmax Median
experimental.readout: Tmax (h)
Kindly provide the numeric value in h only, without the unit symbol.

State the recorded Tmax for this entry: OC[C@H]1O[C@@H](c2ccc(Cl)c(Cc3ccc(O[C@H]4CCOC4)cc3)c2)[C@H](O)[C@@H](O)[C@@H]1O [Compound (I.9)] 2.48

---

# measurement.notes: Study .5: single dose study in healthy Japanese volunteers, pharmacokinetic parameters
# Type: in vivo, human
# condition.summary: human, plasma, oral, 10 mg, 10 mg single dose, Study .5, fasted; read-out: tmax Median
experimental.readout: Tmax (h)
Give the value, in units of h, as a plain number.

Item "OC[C@H]1O[C@@H](c2ccc(Cl)c(Cc3ccc(O[C@H]4CCOC4)cc3)c2)[C@H](O)[C@@H](O)[C@@H]1O" has what recorded Tmax? 1.5

---

# measurement.notes: Study .4: 4-week treatment of diabetic patients, once daily, pharmacokinetic parameters
# Assay type: in vivo, human
# condition.summary: human, plasma, oral, 25 mg, 25 mg once daily, steady state, Study .4, fasted; read-out: AUCτ,ss Median
experimental.readout: AUC (µM·h)
Note: unit µM·h is implicit; provide only the numeric part.

Name the recorded AUC for "OC[C@H]1O[C@@H](c2ccc(Cl)c(Cc3ccc(O[C@H]4CCOC4)cc3)c2)[C@H](O)[C@@H](O)[C@@H]1O" . 4.48

---

# measurement.notes: Study .4: 4-week treatment of diabetic patients, once daily, pharmacokinetic parameters
# Type: in vivo, human
# condition.summary: human, plasma, oral, 25 mg, 25 mg once daily, steady state, Study .4, fasted; read-out: tmax,ss Median
experimental.readout: Tmax (h)
Field format: number, assumed h, no unit text.

For "OC[C@H]1O[C@@H](c2ccc(Cl)c(Cc3ccc(O[C@H]4CCOC4)cc3)c2)[C@H](O)[C@@H](O)[C@@H]1O" , what is its reported Tmax? 1.5

---

# measurement.notes: Study .1: single dose study in healthy volunteers, pharmacokinetic parameters
# Assay type: in vivo, human
# condition.summary: 10 mg single dose, Study .1, fasted; read-out: Cmax Min
experimental.readout: Cmax (µM)
Lab book: enter the figure in µM, no units written.

Could you tell me which Cmax is on file for "OC[C@H]1O[C@@H](c2ccc(Cl)c(Cc3ccc(O[C@H]4CCOC4)cc3)c2)[C@H](O)[C@@H](O)[C@@H]1O" ? 0.143

---

# measurement.notes: Study .2: multiple rising dose trial in diabetic patients, once daily for 8 days, pharmacokinetic parameters
# Assay type: in vivo, human
# condition.summary: human, plasma, oral, 10 mg, 10 mg once daily, steady state, Study .2, fasted; read-out: Cmax,ss Median
experimental.readout: Cmax (nM)
Use nM as the unit, but write only the number.

# input compound: "OC[C@H]1O[C@@H](c2ccc(Cl)c(Cc3ccc(O[C@H]4CCOC4)cc3)c2)[C@H](O)[C@@H](O)[C@@H]1O" ; wanted: its Cmax 279

---

# measurement.notes: Study .3: single dose, cross-over, food effect study in healthy volunteers, pharmacokinetic parameters
# Format: in vivo, human
# condition.summary: human, plasma, oral, 50 mg, 50 mg single dose, Study .3/fed; read-out: Cmax Mean
experimental.readout: Cmax (nM)
The reply should contain only the number, in nM.

Value lookup for Cmax; key = "OC[C@H]1O[C@@H](c2ccc(Cl)c(Cc3ccc(O[C@H]4CCOC4)cc3)c2)[C@H](O)[C@@H](O)[C@@H]1O" 824
